The values you see were collected from the RNAGym collection of RNA variant scans (doi:10.7554/elife.80360).

B1: HDV Ribozyme (parent)
chain: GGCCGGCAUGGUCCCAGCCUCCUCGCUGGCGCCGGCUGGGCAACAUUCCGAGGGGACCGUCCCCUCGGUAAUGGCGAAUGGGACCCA

Variants of: B1
Assay: self-cleavage, relative activity (ratio to wild type); higher = more cleavage; co-transcriptional
The following variants are listed with their measured self-cleavage values.

A selection of reference data follows.
INSERT INTO results (variantidentifier, parameter, testvalue) VALUES
  ('C19G G34C', 'self-cleavage', 0.0978),
  ('G10U C30G', 'self-cleavage', 0.0989),
  ('U37G A45C', 'self-cleavage', 0),
  ('U20G C33G', 'self-cleavage', 0.185);

Item: C26G C66A | self-cleavage: 1.05

Recorded result, U27A C63G , self-cleavage: 0.764
